Cited source: PubChem BioAssay AID1159580

Assay: chemical genetic growth profiling, strain panel (AID 1159580);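 note: tested at 20 µM; growth read once vehicle control cultures reached saturation at 30 °C; 1 = growth at the plate median or of vehicle wells; lower values mean less growth of the strain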
Setup conditions: S. cerevisiae deletion strains, growth OD, locus YJL187C, strain SWE1 (second series), hits give low values
Out of some 5,500 compounds screened, about 2,000 (36%) were called active. About 18% were inconclusive and are not listed. The list shows a part of the results.
Measured attribute: normalized growth
Answers are plain numbers.

Structure as smiles: CN(C)C(=O)Oc1cccc([N+](C)(C)C)c1
normalized growth: 0.987

Look up normalized growth for the entries below, preserving their order.
1. CCOC(=O)[C@H](CCc1ccccc1)N[C@@H](C)C(=O)N1CCC[C@H]1C(=O)O
2. CC(=O)Oc1ccc(/C=C/c2cc(OC(C)=O)cc(OC(C)=O)c2)cc1
3. CCCOc1ccc2nc(NC(=O)OC)[nH]c2c1
4. Cc1cc(=O)oc2cc(O)c(O)cc12

**Result**
1: 1.01; 2: 0.98; 3: 1.01; 4: 0.991
